For reference, the following IC50 results for PASK (Invitrogen) (Homo sapiens) were taken from various sources.

Below, each entry is followed by its recorded IC50 result.
Cc1ccccc1N(C)c1nc2cc(C(=O)O)ccc2nc1-c1ccc(F)cc1 :: < 10 µM
COc1ccc(-c2c(C)nn3c(=O)cc(Cc4ccccc4)[nH]c23)cc1 :: ≥ 10 µM
Cc1cc2cc(-c3cc(=O)n4ncc(-c5ccccn5)c4[nH]3)ccc2o1 :: ≤ 10 µM

Under PASK (Invitrogen) (Homo sapiens): IC50 value of "Cc1c(-c2cc(=O)n3ncc(-c4ccccn4)c3[nH]2)ccc2c1OCO2" ?
≤ 10 µM

Short answer please: IC50, PASK (Invitrogen) (Homo sapiens), entry "O=c1cc(-c2ccc3c(c2)OCCO3)[nH]c2ncnn12"
≤ 10 µM

GET /values?readout=IC50&system=PASK (Invitrogen) (Homo sapiens)&item= "CC(C)N(C)c1nc2cc(C(=O)O)ccc2nc1-c1coc2ccccc12"
< 10 µM

Checklist item: IC50 tested on PASK (Invitrogen) (Homo sapiens), entry "COCc1cc(=O)n2nc(Cc3ccccc3)c(-c3ccc(Cl)cc3)c2[nH]1" , value?
≥ 10 µM

Can you look up IC50 on PASK (Invitrogen) (Homo sapiens) for "O=C(O)c1ccc2nc(-c3cccc(O)c3)c(-c3cccc(O)c3)nc2c1" ?
≤ 10 µM

Query for PASK (Invitrogen) (Homo sapiens): what IC50 does the record show for "CCn1ncc2cc(-c3cc(=O)n4ncc(-c5nc(C)no5)c4[nH]3)ccc21" ?
≤ 10 µM

Kindly state the measured IC50 obtained for "C[C@H]1CCCN1c1nc2cc(C(=O)O)ccc2nc1-c1ccc2[nH]ncc2c1" with PASK (Invitrogen) (Homo sapiens).
< 10 µM

Report IC50 for "CS(=O)(=O)c1ccc(-c2cc(=O)n3ncc(-c4ccccn4)c3[nH]2)cc1" tested on PASK (Invitrogen) (Homo sapiens).
≤ 10 µM

----------
Header: pIC50 / PASK (Invitrogen) (Homo sapiens) / multiple publications
pIC50: −log10 of the molar value.

Recorded pIC50, per entry:
CCn1ncc2cc(-c3cc(=O)n4ncc(-c5cc(C)no5)c4[nH]3)ccc21 :: ≥ 5.00
Cc1coc2ccc(-c3cc(=O)n4nc(N)c(-c5ccccn5)c4[nH]3)cc12 :: ≥ 5.00
O=c1cc(-c2ccc3c(c2)OCO3)[nH]c2c(Cc3ccccn3)cnn12 :: ≥ 5.00
O=c1cc(-c2ccc3[nH]ncc3c2)[nH]c2nc(-c3ccc(Cl)c(Cl)c3)nn12 :: ≥ 5.00

Checklist item: pIC50 tested on PASK (Invitrogen) (Homo sapiens), entry "Nc1nn2c(=O)cc(-c3ccc4c(c3)OCCO4)[nH]c2c1-c1ccccc1" , value?
≥ 5.00

Enter reported pIC50 observed with PASK (Invitrogen) (Homo sapiens) for "C[C@H]1CCCN1c1nc2cc(C(=O)O)ccc2nc1-c1cc2cc(F)ccc2o1"
> 5.00

----------
Kindly find below IC50 information for PASK (Invitrogen) (Homo sapiens, UniProt Q96RG2) taken from the literature.

Examples with their reported IC50 follow.
CC(=O)Nc1ccc(-c2nc3ccc(C(=O)O)cc3nc2N(C)C(C)C)cc1 :: < 10 µM
COc1ccc(-c2cc(=O)n3nc(O)c(-c4ccccn4)c3[nH]2)c(OC)c1 :: ≤ 10 µM
Nc1nn2c(=O)cc(-c3ccc(F)cc3F)[nH]c2c1-c1ccccn1 :: ≤ 10 µM
CC(C)N(C)c1nc2cc(C(=O)O)ccc2nc1-c1occc1-c1ccccc1 :: < 10 µM

Quick one: IC50 of "Cc1noc(-c2c(O)nn3c(=O)cc(-c4ccc(Cl)cc4)[nH]c23)n1" ?
≤ 10 µM

----------
pIC50: −log10 of the molar value.
This section presents pIC50 values reported for PASK (Invitrogen) (Homo sapiens, UniProt Q96RG2) in the literature.

Worked examples follow.
COc1c(-c2cc(=O)n3nc(C)c(-c4ccccn4)c3[nH]2)ccc2c1OCO2 :: ≥ 5.00
CCN(CC)c1nc2cc(C(=O)O)ccc2nc1-c1ccc(F)cc1 :: > 5.00
O=c1cc(-c2ccc3c(c2)OCCO3)[nH]c2c(-c3cccnc3)cnn12 :: ≥ 5.00
COc1ccc2[nH]c(-c3nc4ccc(C(=O)O)cc4nc3N(C)C(C)C)cc2c1 :: > 5.00
CC(C)N(C)c1nc2cc(C(=O)O)ccc2nc1-c1cc2cc(F)c(F)cc2o1 :: > 5.00

# pIC50 lookup, item "COc1ccc(-c2c(Cc3ccccc3)nn3c(=O)cc(-c4ccccc4)[nH]c23)cc1"
≤ 5.00

Given "CCN(CC)c1nc2cc(C(=O)O)ccc2nc1-c1cc2ccccc2o1" , state its recorded pIC50.
> 5.00

Any idea what its pIC50 is? The compound is "O=C(O)c1ccc2nc(-c3ccc(F)cc3)c(N3CCCc4cc5c(cc43)OCO5)nc2c1"
≥ 5.00

----------
System: PASK (Invitrogen) (Homo sapiens) | Read-out: pIC50 | Origin: multiple publications
pIC50: −log10 of the molar value.

Example molecules with recorded pIC50:
O=C(O)c1ccc2nc(-c3ccc4[nH]ccc4c3)c(N3CCCCCC3)nc2c1 :: > 5.00
Cc1coc2ccc(-c3cc(=O)n4nc(O)c(-c5ccccn5)c4[nH]3)cc12 :: ≥ 5.00
CCn1ncc2cc(-c3cc(=O)n4ncc(-c5nc(C)co5)c4[nH]3)ccc21 :: ≥ 5.00
COc1ccc(-c2nc3cc(C(=O)O)ccc3cc2-c2ccccc2)cc1 :: ≥ 5.00
O=c1cc(-c2ccc3c(c2)OCCO3)[nH]c2c(-c3ccc(F)cc3)cnn12 :: ≥ 5.00

Now look at this one.
Need pIC50 of "O=c1cc(-c2ccc(Cl)c(Cl)c2)[nH]c2c(-c3ccccn3)cnn12" , thanks.
≥ 5.00

----------
# literature pull: PASK (Invitrogen) (Homo sapiens) pIC50
pIC50: −log10 of the molar value.

PASK (Invitrogen) (Homo sapiens) / pIC50 / "C[C@H]1CNCCN1c1nc2cc(C(=O)O)ccc2nc1-c1ccc(F)cc1" : value?
> 5.00

Param readout = pIC50; param system = PASK (Invitrogen) (Homo sapiens); param query = "Cn1ncc2cc(-c3cc(=O)n4ncc(-c5cc[nH]n5)c4[nH]3)ccc21" ; response: value
≥ 5.00

Could you share what pIC50 was measured for "C[C@H]1CCCN1c1nc2cc(C(=O)O)ccc2nc1-c1ccc2scnc2c1" , tested on PASK (Invitrogen) (Homo sapiens)?
> 5.00

What reported pIC50 corresponds to "O=c1cc(-c2ccc3c(c2)OCO3)[nH]c2nc(Cc3ccccc3)nn12" on PASK (Invitrogen) (Homo sapiens)?
≥ 5.00

For the record "Cc1[nH]c2c(-c3ccc(Cl)cc3)cnn2c(=O)c1Cc1ccccc1" , what value of pIC50 is listed for PASK (Invitrogen) (Homo sapiens)?
≥ 5.00

# value lookup — system PASK (Invitrogen) (Homo sapiens), readout pIC50, item "CN(Cc1ccccc1)c1nc2cc(C(=O)O)ccc2nc1-c1ccc2[nH]ncc2c1"
> 5.00

Param readout= pIC50; system= PASK (Invitrogen) (Homo sapiens); entry= "Cn1ccc(-c2cnn3c(=O)cc(-c4ccc5c(cnn5C)c4)[nH]c23)n1" ; returns value.
≥ 5.00

Which pIC50 is reported with PASK (Invitrogen) (Homo sapiens) for this entry: "Cc1noc(-c2c(C)nn3c(=O)cc(-c4ccc(Cl)cc4)[nH]c23)n1" ?
≥ 5.00

----------
Record set: IC50 | PASK (Invitrogen) (Homo sapiens, UniProt Q96RG2) | literature, multiple sources.

Cc1c(-c2cc(=O)n3nc(O)c(-c4ccccn4)c3[nH]2)ccc2[nH]nnc12 :: ≤ 10 µM
COc1cc(-c2cc(=O)n3nc(-c4ccc(Cl)cc4)nc3[nH]2)ccc1Cl :: ≤ 10 µM
O=C(O)c1ccc2nc(-c3ccc4[nH]ncc4c3)c(N3CCCCCC3)nc2c1 :: < 10 µM
O=c1cc(-c2ccc3occc3c2)[nH]c2c(-c3cccnc3)c(O)nn12 :: ≤ 10 µM
CCCN(CCC)c1nc2cc(C(=O)O)ccc2nc1-c1ccc(F)cc1 :: < 10 µM

Continue with the next compound.
Data request, read-out IC50, for CCC1CCCCN1c1nc2cc(C(=O)O)ccc2nc1-c1ccc(F)cc1 (stereo not drawn)
< 10 µM

----------
From various publications: pIC50 for PASK (Invitrogen) (Homo sapiens).
pIC50: −log10 of the molar value.

CC(C)N(C)c1nc2cc(C(=O)O)ccc2nc1-c1ccc2nccnc2c1 :: > 5.00
CCCc1cc(=O)n2nc(Cc3ccccc3)c(-c3ccc(Cl)cc3)c2[nH]1 :: ≤ 5.00
CC(C)N(C)c1nc2cc(C(=O)O)ccc2nc1-c1ccc2[nH]nnc2c1 :: > 5.00

API: value(readout= pIC50, system= PASK (Invitrogen) (Homo sapiens), query= "CC[C@@H](C)N(C)c1nc2cc(-c3nnn[nH]3)ccc2nc1-c1ccc(F)cc1" )
≥ 5.00

Query pIC50 on PASK (Invitrogen) (Homo sapiens) for "COc1cc(-c2cc(=O)n3ncc(-c4noc5ccccc45)c3[nH]2)ccc1Cl"
≥ 5.00

State its pIC50 on PASK (Invitrogen) (Homo sapiens): "CC(C)N(C)c1nc2cc(C(=O)O)ccc2nc1-c1ccc2scnc2c1"
> 5.00

Lookup: pIC50 / PASK (Invitrogen) (Homo sapiens) / "CC(C)N(C)c1nc2cc(C(=O)O)ccc2nc1-c1cn[nH]c1"
> 5.00

Provide the documented pIC50 with PASK (Invitrogen) (Homo sapiens) as the system for "O=c1cc(-c2ccc(Cl)cn2)[nH]c2c(-c3ncco3)cnn12"
< 5.00

Record lookup: for PASK (Invitrogen) (Homo sapiens), what pIC50 belongs to "CCCc1nn2c(=O)cc(-c3ccc4c(cnn4CC)c3)[nH]c2c1-c1nc(C)no1" ?
≥ 5.00
